Just for reference, a melting point compilation (Tetko et al.; mined from patent text by program, amines drawn as free bases though some values may be those of a salt) is where these values come from.

melting point overview

1. O=C(c1cc2ccccc2s1)C1CCN(CCc2ccccc2)CC1 :: 129 to 130 °C
2. COc1ccccc1NC(=O)C1CCc2nc[nH]c2C1 (stereo unspecified) :: 100 to 102 °C
3. CNC(=O)N(O)Cc1cccs1 :: 108 °C
4. O=C(O)c1nc(CCCc2ccccc2)c[nH]1 :: 148 to 150 °C
5. CN(c1ccc(OC(F)(F)C(F)F)cc1)c1c([N+](=O)[O-])cc([N+](=O)[O-])cc1C(F)(F)F :: 91 to 92 °C

So what's the measured melting point for this one? CCOC(=O)c1cc(-c2ccc(Br)cc2)c(=O)n(Cc2ccc(Cl)cc2Cl)c1
152 to 154 °C

Also check Cc1c(C(=O)NCC(=O)O)oc2cc(-c3ccc(Cn4c(C)nc5ccccc54)cc3)ccc12
248 to 250 °C

Consider next the compound Cc1ccc2c(C3=C(c4cn(C)c5ccccc45)C(=O)NC3=O)cn(C)c2c1 in the same way.
264 to 266 °C

Next record, please: CNC(=O)c1cccc(NC(=O)Cc2cccc(F)c2)c1
147 to 148 °C

Repeat with CN(C)C(=O)C1CN(C)c2nc3cc(F)c(F)cc3cc2C1=O (stereo unspecified)
206 °C

Same for COc1c2c(c(OC)c(OC)c1OC)CC(C(=O)O)(c1ccc(OCCCC(=O)O)cc1)C2
148 to 150 °C

Further, for COc1ccc(CC(C)NCC(O)c2cccc(Cl)c2)cc1 (stereo unspecified) ?
80 to 87 °C
